system: K4 kissing-loop RNA reporter; assay: apparent KD of K4 kissing-loop reporter; higher = weaker reporter binding; conditions: Eterna round: R107; input ligand: theophylline 20 uM;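 note: bound reporter read as fluorescence of individual clusters on recovered sequencing chips by microscopy, with normalized cluster intensities fitted with a binding model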
Here the recorded apparent KD of K4 kissing-loop reporter is given for each entry.

POLYMER SEQUENCE	SYSTEM NAME	apparent KD of K4 kissing-loop reporter (nM)
UUUCGUAGAAGUGAUACCAGACUGGAAAGUGAUGUUUUCCAAUUAUUUAAAUCCUUAUCUGUCCCUUGGCAGCACAGUUUAUUUA [JR_Nu_ExcTheophyB_Sub027]	K4 kissing-loop RNA reporter	97.6
GAUGUCUAGAGAUCAUCUAGACACCUAGAUACCAGCAGAUAUAUCUGCCCUUGGCAGCUAGAACCAGUGAUGUUGGUAUAUGCUC [Theo A SS t3]	K4 kissing-loop RNA reporter	360
CCAUUCUGUUACGAUACCAGUCAAAUAUAUUUGAUCAAUACCCUCGCCGAGUGAUGUUCGGACCCUUGGCAGCGUCUGGGACAGG [ccdfmullin]	K4 kissing-loop RNA reporter	544
AAUACGUUCACGGCCGCCACUGAAUAAUUGGUAAGUAGUGAUGUUACUUUACAUAUCUUAUUUAACAGGACCGGGUGAUCGUUUA [JR_Nu_ExcTryptoB_Sub028]	K4 kissing-loop RNA reporter	105
CGGCCCGGCGCGGCCGCCACUGUGCCUGGGCGCUUGCCGAGUGAUGUUCGUCGGCGGUCGGGUGGCAGGACCGGGCGCCGGUCCG [BDazzled - #26 SS Tryptophan B]	K4 kissing-loop RNA reporter	123
AUUCUGUUUUUGAUGUUUUUUGUAUAAUGGCAGGAUAUCGUAGAAGCGAGAAGGGCUUUUAUGCGUUAUGAGUGAUGUUUGUAGG [ttytewvmullin]	K4 kissing-loop RNA reporter	275
UGAUACCAGACUGAUACCAGCGAGUGAUGUUUGCUGAUCUAAAGCAGUCAAAGACUGCCUUGCCCUUGGCAGCAGUCUGGUAUCU [TheoBX 26 #SwitchBubble #StaticStem]	K4 kissing-loop RNA reporter	351
UAGUGUCGCGCAGGAUAUACUGAUUGGAGUGAUGUUCCAAACAUGAACGUGAGACUUUUACAAGAAGUAGAAGGGCGUGAGACAU [Exclusion FMN B GF 21]	K4 kissing-loop RNA reporter	393
GCGUUCAUGGCAGGAUAUAGGUAAAGGAGUGAUGUUCCUUAUGUUGCAUUUACUUAAUCCAACUCCCUAGAAGGGCCAUGAACGC	K4 kissing-loop RNA reporter	139
CCAUCGCUAUUCGAUACCAGUCAGGAGGUCUGUGACCUCCUAAUGGAGUGAUGUUCCUUAGACCCUUGGCAGCGAAUAGUGAUGG [#02 K4 Theophylline B Same State]	K4 kissing-loop RNA reporter	141
UGUACCGAGUUAGGAUAUGUCGUCGAAAGACGAAAUGGAGUGAUGUUCCUUAAACUGCGAAAGCAGACAGAAGGAACUUGGUACU [FmnBS 29 U11+A75]	K4 kissing-loop RNA reporter	546
UAGUGAUGCUAUGUUAGGUUUUUUAGGGAAGGAGCGCCAAAGAAGGCAGGUAGGUCGCCCUAUAUUCCCAGUGAUGUUGGGUAUU [Skye_Ex_AA]	K4 kissing-loop RNA reporter	93.6

Just for reference, the supplement of paper PMC9170038 is where these values come from.
